B1: Hairpin Ribozyme (parent)
chain: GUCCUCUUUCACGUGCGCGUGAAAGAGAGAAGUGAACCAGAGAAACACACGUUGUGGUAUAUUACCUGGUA

- Variants of: B1
- experiment_description: self-cleavage, relative activity (ratio to wild type); higher = more cleavage; co-transcriptional
# label = class 1 if self-cleavage >= 0.2 else class 0

[Q] For this variant, is measured self-cleavage 0.2 or higher? U7C G25U
[A] class 1

[Q] Determine whether this variant has self-cleavage no lower than 0.2: C16G U55A
[A] class 1

[Q] Check if self-cleavage >= 0.2 (inclusive). Item: U53G U67C
[A] class 0

---
[Q] Has G19U A39U a recorded self-cleavage greater than or equal to 0.2?
[A] class 1

[Q] Does self-cleavage meet or surpass 0.2 for C16U A22C ?
[A] class 1

[Q] API: above_or_equal(metric=self-cleavage, cutoff=0.2) for item G32U U53A
[A] class 0

[Q] Please tell me: is the variant G27A A43C at or over 0.2 in terms of self-cleavage?
[A] class 0

[Q] API: above_or_equal(metric=self-cleavage, cutoff=0.2) for item U20C A23G
[A] class 1

[Q] Check if self-cleavage >= 0.2 (inclusive). Item: A43C A45C
[A] class 0

[Q] Does the variant G19U C48U have recorded self-cleavage that is 0.2 or more?
[A] class 0

[Q] Identify whether the reported self-cleavage of the following variant is 0.2 or greater: G51U A61U
[A] class 1

[Q] Determine whether this variant has self-cleavage no lower than 0.2: U67C G68C
[A] class 0

[Q] I'd appreciate it if you could say whether C4A G21U has self-cleavage at least equal to 0.2.
[A] class 0

[Q] In plain terms: is recorded self-cleavage at least 0.2 for G15A A23C ?
[A] class 1
